Assay: NCI Yeast Anticancer Drug Screen. Data for the mlh1 rad18 strain (AID 175)
Details: S. cerevisiae mlh1 rad18 strain growth inhibition; at 50.0 µM; hits give high values
This is part of a sample that, as a whole, favours compounds with a hit. Of some 79,000 tested, about 15% had one in any assay. Where a SMILES comes first, the peptide text is derived from it. The star is where a group is joined. Cbz = O=C(OCc1ccccc1)*; Bn = c1ccc(C*)cc1
In this section, each of the compounds is paired with its reported growth inhibition.

- COMPOUND: "NC(=O)C1C=Cc2ccccc21 (stereo not drawn)"
  growth inhibition, %: -35.6
- COMPOUND: "COc1cc2oc(-c3ccc(O)cc3)cc(=O)c2c(OC)c1OC"
  growth inhibition, %: 12.3
- COMPOUND: "CCc1cccc(C(=O)O)c1N"
  growth inhibition, %: 0.9
- COMPOUND: "COC(=O)/C=C1\\CCC2C3CC=C4C=C(N5CCCC5)CCC4(C)C3C(=O)CC12C (stereo not drawn)"
  growth inhibition, %: -18.2
- COMPOUND: "c1cc2c3c(cc4c(c3c1)CCCC4)CC2"
  growth inhibition, %: -4.75
- COMPOUND: "[N-]=[N+]=NCC1OCOC1C1OCOC1CN=[N+]=[N-] (stereo not drawn)"
  growth inhibition, %: -3.5
- COMPOUND: "COc1ccc(/C=N/n2cnc3c(sc(=S)n3-c3ccccc3)c2=O)cc1"
  growth inhibition, %: 12.8
- COMPOUND: "CCOC(=O)\\C(C#N)=C/C=C(C)/C(C)=C/Nc1ccc([N+](=O)[O-])cc1[N+](=O)[O-]"
  growth inhibition, %: 22.6
- COMPOUND: "CCC(=O)OC1(C(=O)OC)CCN(C)CC1"
  growth inhibition, %: 10.4
- COMPOUND: "OCC=C1CCCCCC1"
  growth inhibition, %: 2.95
- COMPOUND: "CS(=O)(=O)Nc1nc2ccccc2c(=O)o1"
  growth inhibition, %: 4.85
- COMPOUND: "COc1cccc(Cc2c3cc(OC)ccc3cc[n+]2C)c1"
  growth inhibition, %: 52.7
- COMPOUND: "CCCOC(=O)C(OC(=O)c1ccccc1)C(OC(=O)c1ccccc1)C(=O)OCCC (stereo not drawn)"
  growth inhibition, %: -3.7
- COMPOUND: "CC(C)C(NC(=O)C(CSCc1ccccc1)NC(=O)OCc1ccccc1)C(N)=O (stereo not drawn) (Cbz-Cys(Bn)-Val-NH2; configuration not given here)"
  growth inhibition, %: 30.6
- COMPOUND: "Cc1cc(C)c(N=Nc2cc(C)c(N)cc2N)c(S(=O)(=O)O)c1"
  growth inhibition, %: 10.8
- COMPOUND: "CCOC(=O)/C(C)=C1\\N=C(c2ccccc2)OC(=NC2CCCCC2)N1C1CCCCC1"
  growth inhibition, %: 8.1
- COMPOUND: "CCOC(=O)c1c(C(=O)OCC)c(C)n(/N=N/n2c(C)c(C(=O)OCC)c(C(=O)OCC)c2C)c1C"
  growth inhibition, %: 12.8
- COMPOUND: "COc1c2c(cc3c1C(=O)Cc1ccc4c(c1CN(C)CC3)OCO4)OCO2"
  growth inhibition, %: 7.25
- COMPOUND: "OC1COC(O)(CN2CCOCC2)C(O)C1O (stereo not drawn)"
  growth inhibition, %: 7.6
- COMPOUND: "Cc1cccc(NC(=O)C(Cl)Cl)n1"
  growth inhibition, %: -18.1
- COMPOUND: "Cc1ccc(S(=O)[O-])cc1.Cc1ccc(S(=O)[O-])cc1.[Zn+2]"
  growth inhibition, %: 0.4
- COMPOUND: "Nc1c(Cl)ncnc1NCCN1CCOCC1"
  growth inhibition, %: -18.4
- COMPOUND: "CNC(=O)C1NCCc2cc(OC)c(OC)cc21 (stereo not drawn)"
  growth inhibition, %: 20.6

Where do these numbers come from? They come from PubChem BioAssay (NCI).
